B1: library; numbered along this chain (parent)
chain: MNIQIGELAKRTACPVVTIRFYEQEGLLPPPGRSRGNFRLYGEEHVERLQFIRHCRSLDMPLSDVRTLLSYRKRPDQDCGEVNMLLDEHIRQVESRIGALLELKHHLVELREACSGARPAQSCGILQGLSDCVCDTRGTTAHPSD

Variants of: B1
assay-protocol: sfGFP reporter fluorescence (15 h) (µM FITC); higher = stronger transcriptional activation
details: library round: Round 0; ligand: 1 µM Pb
Output Met for sfGFP reporter fluorescence not less than 0.07; output Not met otherwise.

## Task sfGFP reporter fluorescence >= 0.07 for D64K L107C G128M ?
## Result Met

## Task Is reported sfGFP reporter fluorescence greater than or equal to 0.07 here: V108R
## Result Met

## Task Hello, I need to know if E94M has measured sfGFP reporter fluorescence not below 0.07. Thanks!
## Result Met

## Task # check: sfGFP reporter fluorescence of I125E is greater than or equal to 0.07
## Result Not met

## Task For this variant, is measured sfGFP reporter fluorescence 0.07 or higher? S57A
## Result Not met

## Task Tell me whether sfGFP reporter fluorescence is at least 0.07 here: R33M
## Result Not met

## Task Test whether the variant R96A records sfGFP reporter fluorescence of 0.07 or higher.
## Result Met

## Task Is it the case that E112K has sfGFP reporter fluorescence reaching or exceeding 0.07?
## Result Met

## Task Record G128D ; criterion: sfGFP reporter fluorescence no lower than 0.07. Met?
## Result Not met

## Task Kindly determine if sfGFP reporter fluorescence recorded for D131H is above or exactly 0.07.
## Result Met

## Task // inclusive: sfGFP reporter fluorescence at least 0.07? input: L58M
## Result Not met

## Task Hello, I need to know if V82F has measured sfGFP reporter fluorescence not below 0.07. Thanks!
## Result Not met

## Task Does the variant I90F have recorded sfGFP reporter fluorescence that is 0.07 or more?
## Result Not met

## Task Entry G6H : is its sfGFP reporter fluorescence no less than 0.07?
## Result Not met

## Task Does L27D have a reported sfGFP reporter fluorescence of at least 0.07?
## Result Not met

## Task Given the entry H106A , answer whether its sfGFP reporter fluorescence meets or surpasses 0.07.
## Result Not met

## Task Say whether D64M shows sfGFP reporter fluorescence of 0.07 or more.
## Result Met

## Task Is the recorded value of sfGFP reporter fluorescence equal to or greater than 0.07 for this variant? D64A
## Result Met

## Task Quick check, sfGFP reporter fluorescence >= 0.07? P61N D64K K104V L107C
## Result Met

## Task Would you say M60L P61N D64K K104V shows sfGFP reporter fluorescence at minimum 0.07?
## Result Met

## Task Could you please find out whether M60Y has sfGFP reporter fluorescence that meets 0.07 or exceeds it?
## Result Not met

## Task Is reported sfGFP reporter fluorescence greater than or equal to 0.07 here: S130A
## Result Met

## Task Please tell me: is the variant L62R at or over 0.07 in terms of sfGFP reporter fluorescence?
## Result Not met

## Task // inclusive: sfGFP reporter fluorescence at least 0.07? input: F21D
## Result Not met

## Task Confirm if sfGFP reporter fluorescence reported for the variant G36C is 0.07 or above.
## Result Met

## Task Does the variant C123D have recorded sfGFP reporter fluorescence that is 0.07 or more?
## Result Not met

## Task Determine whether this variant has sfGFP reporter fluorescence no lower than 0.07: D135P
## Result Met

## Task Given the entry R56A , answer whether its sfGFP reporter fluorescence meets or surpasses 0.07.
## Result Not met

## Task State whether the measured sfGFP reporter fluorescence reaches 0.07, counting equality as reaching it, for C123H
## Result Not met

## Task Exam item: decide whether the reported sfGFP reporter fluorescence for P143F is at least 0.07.
## Result Met

## Task Would you say L85T shows sfGFP reporter fluorescence at minimum 0.07?
## Result Not met

## Task Please indicate if the recorded sfGFP reporter fluorescence for L68W meets or exceeds 0.07.
## Result Not met

## Task sfGFP reporter fluorescence >= 0.07 for G6Q ?
## Result Not met

## Task Does sfGFP reporter fluorescence meet or surpass 0.07 for V16S ?
## Result Met

## Task Reported sfGFP reporter fluorescence at or above 0.07? V108P
## Result Not met

## Task # bool: sfGFP reporter fluorescence of E112H >= 0.07
## Result Met

## Task Please indicate if the recorded sfGFP reporter fluorescence for L126S meets or exceeds 0.07.
## Result Not met

## Task Dear colleague, could you confirm whether L28P has sfGFP reporter fluorescence at or above 0.07?
## Result Not met

## Task Does M60E have a reported sfGFP reporter fluorescence of at least 0.07?
## Result Met

## Task Please check the record P15W and state if its sfGFP reporter fluorescence is at or above 0.07.
## Result Not met

## Task Record I125C ; criterion: sfGFP reporter fluorescence no lower than 0.07. Met?
## Result Not met

## Task Does the reported sfGFP reporter fluorescence for L107H fall at or above the 0.07 mark?
## Result Not met

## Task Evaluate M60L P61N L107C : sfGFP reporter fluorescence at minimum 0.07?
## Result Met

## Task Is the recorded value of sfGFP reporter fluorescence equal to or greater than 0.07 for this variant? C55N
## Result Not met

## Task API: above_or_equal(metric=sfGFP reporter fluorescence, cutoff=0.07) for item C134P
## Result Met

## Task Decide: is the reported value of sfGFP reporter fluorescence for L68C equal to or greater than 0.07?
## Result Met

## Task Form field: sfGFP reporter fluorescence at least 0.07? Entry: Y41H
## Result Not met

## Task Identify whether the reported sfGFP reporter fluorescence of the following variant is 0.07 or greater: G6T
## Result Not met

## Task Record L85K ; criterion: sfGFP reporter fluorescence no lower than 0.07. Met?
## Result Not met

## Task Confirm if sfGFP reporter fluorescence reported for the variant K104V L107C G128I is 0.07 or above.
## Result Met

## Task # check: sfGFP reporter fluorescence of V16Y is greater than or equal to 0.07
## Result Not met

## Task Is sfGFP reporter fluorescence at least 0.07? Consider M60L P61N L107C G128I
## Result Met

## Task Decide: is the reported value of sfGFP reporter fluorescence for E94G equal to or greater than 0.07?
## Result Not met

## Task Does the variant C134K have recorded sfGFP reporter fluorescence that is 0.07 or more?
## Result Met

## Task Could you verify whether the entry P30F shows sfGFP reporter fluorescence of no less than 0.07?
## Result Met

## Task Please tell me: is the variant D135M at or over 0.07 in terms of sfGFP reporter fluorescence?
## Result Met

## Task Could you please find out whether V16H has sfGFP reporter fluorescence that meets 0.07 or exceeds it?
## Result Met

## Task Can I3P be said to have sfGFP reporter fluorescence at or above 0.07?
## Result Not met

## Task Quick check: does I3K have sfGFP reporter fluorescence greater than or equal to 0.07?
## Result Not met

## Task Given K104M , state whether its sfGFP reporter fluorescence is at least 0.07.
## Result Met

## Task Item V108G with sfGFP reporter fluorescence of 0.07 or above?
## Result Not met

## Task Can P61T be said to have sfGFP reporter fluorescence at or above 0.07?
## Result Met

## Task Given E7G , state whether its sfGFP reporter fluorescence is at least 0.07.
## Result Met

## Task Identify whether the reported sfGFP reporter fluorescence of the following variant is 0.07 or greater: C55I
## Result Not met

## Task Does the reported sfGFP reporter fluorescence for I97T fall at or above the 0.07 mark?
## Result Not met

## Task Is sfGFP reporter fluorescence for Y41E at or above 0.07?
## Result Not met

## Task Record E94V ; criterion: sfGFP reporter fluorescence no lower than 0.07. Met?
## Result Met

## Task sfGFP reporter fluorescence >= 0.07 for R20G ?
## Result Not met

## Task API: above_or_equal(metric=sfGFP reporter fluorescence, cutoff=0.07) for item H89K
## Result Not met

## Task Dear colleague, could you confirm whether R33K has sfGFP reporter fluorescence at or above 0.07?
## Result Not met

## Task Dear colleague, could you confirm whether L85Q has sfGFP reporter fluorescence at or above 0.07?
## Result Not met

## Task Does sfGFP reporter fluorescence meet or surpass 0.07 for M60L D64K L107C ?
## Result Met

## Task Check if sfGFP reporter fluorescence >= 0.07 (inclusive). Item: F21K
## Result Not met

## Task API: above_or_equal(metric=sfGFP reporter fluorescence, cutoff=0.07) for item L58C
## Result Not met

## Task Reported sfGFP reporter fluorescence reaches at least 0.07 for P61V ?
## Result Met

## Task Determine whether measured sfGFP reporter fluorescence meets or exceeds 0.07 for V133A
## Result Met

## Task API: above_or_equal(metric=sfGFP reporter fluorescence, cutoff=0.07) for item R33E
## Result Not met

## Task Does the variant R33C have recorded sfGFP reporter fluorescence that is 0.07 or more?
## Result Not met

## Task Does the variant C134R have recorded sfGFP reporter fluorescence that is 0.07 or more?
## Result Met

## Task Determine whether measured sfGFP reporter fluorescence meets or exceeds 0.07 for F21T
## Result Not met

## Task // inclusive: sfGFP reporter fluorescence at least 0.07? input: G80A
## Result Not met

## Task Could you please find out whether L58N has sfGFP reporter fluorescence that meets 0.07 or exceeds it?
## Result Not met

## Task Threshold query (sfGFP reporter fluorescence >= 0.07) on R39P
## Result Not met

## Task Does sfGFP reporter fluorescence meet or surpass 0.07 for R33A ?
## Result Not met

## Task Threshold query (sfGFP reporter fluorescence >= 0.07) on Y22T
## Result Not met

## Task Is sfGFP reporter fluorescence for P61N D64K L107C G128I at or above 0.07?
## Result Met

## Task Check this variant for sfGFP reporter fluorescence at or above 0.07: F38A
## Result Not met
